// values below are reported EC50
system: CEM cells HIV-1 protection, formazan growth assay; test: NCI AIDS Antiviral Assay

[
  {
    "compound": "CCOC(=O)C(=CNC(=S)Nc1c(CC)cccc1C(C)(C)C)C(=O)OCC",
    "EC50": "> 200 µM"
  },
  {
    "compound": "O=c1n(-c2ccccc2)c(=O)n2c(-c3ccccc3)c(-c3ccccc3)n12",
    "EC50": "> 200 µM"
  },
  {
    "compound": "CC1=Nc2nc(=NCCCN(C)C)nc3cccc(n23)N1",
    "EC50": "> 200 µM"
  },
  {
    "compound": "COC(=O)C1OC(OC2=C(c3ccc(OC)cc3)C(=O)C(OC3OC(C(=O)OC)C(OC(C)=O)C(OC(C)=O)C3OC(C)=O)=C(c3ccc(OC)cc3)C2=O)C(OC(C)=O)C(OC(C)=O)C1OC(C)=O (stereo unspecified)",
    "EC50": "> 28.8 µM"
  },
  {
    "compound": "c1ccc(P(CCP(CCP(c2ccccc2)c2ccccc2)c2ccccc2)CCP(c2ccccc2)c2ccccc2)cc1 (stereo unspecified)",
    "EC50": "> 10.7 µM"
  },
  {
    "compound": "O=C(N/N=C(/c1nc2ccc(Cl)cc2[nH]c1=O)C(O)c1ccc(Cl)cc1Cl)c1ccncc1 (stereo unspecified)",
    "EC50": "> 501 µM"
  }
]
